# test_system: HLA-A*02:01
# test_method_notes: IEDB peptide-MHC binding, purified MHC/competitive/radioactivity; bounds were set here for any values at or beyond the usual limits of such assays
# measurement_parameters: source organism: Rhinovirus C
measurement_label: IC50 (nM)
Numbers only, in nM.

stdin: Please look up its IC50: `GLEPLDLNT`
stdout: 500

----------
# test_system: HLA-A*11:01
# test_method_notes: IEDB peptide-MHC binding, purified MHC/direct/fluorescence; filed as Kd, often an IC50 or EC50 that approximates it; bounds were set here for any values at or beyond the usual limits of such assays
# measurement_parameters: source organism: Brucella suis
pKd: −log10 of the molar value.
measurement_label: pKd

stdin: Please look up its pKd: `DVIGNDRQE`
stdout: ≤ 4.70
